# PROTOCOL_DESCRIPTION: Plasma PK of Formula Ia and metabolites after inhalation in African Green Monkeys
# STATED_CONDITIONS: both, monkey, in vivo, inhaled or intranasal, 0.168 mg/kg
QUANTITY_KIND: half-life (h)
Give bare numbers, in h.

For reference, reported half-life for "N#C[C@@]1(c2ccc3c(N)ncnn23)O[C@H](CO)[C@@H](O)[C@H]1O" stands at 7.58

---

# Type: physicochemical
# STATED_CONDITIONS: pH 1.8; 2-8° C.; 24 h
QUANTITY_KIND: % assay/degs, difference from T = 0 (%)
Answers are plain numbers, in %.

These recorded examples may help you get a feel for the data.
[[record]]
line_notation = "CCC(CC)COC(=O)[C@H](C)N[P@](=O)(OC[C@H]1O[C@@](C(N)=O)(c2ccc3c(N)ncnn23)[C@H](O)[C@@H]1O)Oc1ccccc1"
reported = 0.00

[[record]]
line_notation = "CCC(CC)COC(=O)[C@H](C)N[P@](=O)(OC[C@H]1O[C@@](C#N)(c2ccc3c(N)ncnn23)[C@H](O)[C@@H]1O)Oc1ccccc1"
reported = "−0.5"

[[record]]
line_notation = "N#C[C@@]1(c2ccc3c(N)ncnn23)O[C@H](CO)[C@@H](O)[C@H]1O"
reported = 0.01


# input for lookup
For reference, reported % assay/degs, difference from T = 0 for "N#C[C@@]1(c2ccc3c(N)ncnn23)O[C@H](COP(=O)(O)Oc2ccccc2)[C@@H](O)[C@H]1O" stands at 0.20

---

# PROTOCOL_DESCRIPTION: PK following IV administration of Formula Ia in African Green Monkeys
# Design: species or system African Green Monkeys
# STATED_CONDITIONS: monkey, in vivo; 10 mg/kg IV AGM; read-out: AUC0-t
QUANTITY_KIND: AUC(0-t) (µM·h)
One number for each entry, in µM·h.

For reference, reported AUC(0-t) for "N#C[C@@]1(c2ccc3c(N)ncnn23)O[C@H](CO)[C@@H](O)[C@H]1O" stands at 9.06

---

# PROTOCOL_DESCRIPTION: in vivo
# STATED_CONDITIONS: both, monkey, 0.168 mg/kg
QUANTITY_KIND: concentration at 24 h (nM)
Answers are plain numbers, in nM.

For reference, reported concentration at 24 h for "N#C[C@@]1(c2ccc3c(N)ncnn23)O[C@H](CO)[C@@H](O)[C@H]1O" stands at 302

---

# Assay type: physicochemical
# STATED_CONDITIONS: pH 3.8; 2-8° C.; 168 h
Please provide measured % assay/degs, difference from T = 0 for the entries that follow.

These recorded examples may help you get a feel for the data.
[[record]]
line_notation = "CCC(CC)COC(=O)[C@H](C)N[P@](=O)(OC[C@H]1O[C@@](C(N)=O)(c2ccc3c(N)ncnn23)[C@H](O)[C@@H]1O)Oc1ccccc1"
quantity_kind = "% assay/degs, difference from T = 0"
reported = "0.00%"

[[record]]
line_notation = "CCC(CC)COC(=O)[C@H](C)N[P@](=O)(OC[C@H]1O[C@@](C#N)(c2ccc3c(N)ncnn23)[C@H](O)[C@@H]1O)Oc1ccccc1"
quantity_kind = "% assay/degs, difference from T = 0"
reported = "0.1%"

[[record]]
line_notation = "N#C[C@@]1(c2ccc3c(N)ncnn23)O[C@H](CO)[C@@H](O)[C@H]1O"
quantity_kind = "% assay/degs, difference from T = 0"
reported = "0.00%"


# input for lookup
For reference, reported % assay/degs, difference from T = 0 for "N#C[C@@]1(c2ccc3c(N)ncnn23)O[C@H](COP(=O)(O)Oc2ccccc2)[C@@H](O)[C@H]1O" stands at 0.01%

---

Please provide measured % assay/degs, difference from T = 0 for the entries that follow.
# Assay type: physicochemical
# STATED_CONDITIONS: pH 4.0; Ambient; 96 h
Numbers only, in %.

These recorded examples may help you get a feel for the data.
[[record]]
line_notation = "N#C[C@@]1(c2ccc3c(N)ncnn23)O[C@H](COP(=O)(O)Oc2ccccc2)[C@@H](O)[C@H]1O"
quantity_kind = "% assay/degs, difference from T = 0"
reported = 0.04

[[record]]
line_notation = "CCC(CC)COC(=O)[C@H](C)N[P@](=O)(OC[C@H]1O[C@@](C(N)=O)(c2ccc3c(N)ncnn23)[C@H](O)[C@@H]1O)Oc1ccccc1"
quantity_kind = "% assay/degs, difference from T = 0"
reported = 0.00

[[record]]
line_notation = "CCC(CC)COC(=O)[C@H](C)N[P@](=O)(OC[C@H]1O[C@@](C#N)(c2ccc3c(N)ncnn23)[C@H](O)[C@@H]1O)Oc1ccccc1"
quantity_kind = "% assay/degs, difference from T = 0"
reported = 0.0


For reference, reported % assay/degs, difference from T = 0 for "N#C[C@@]1(c2ccc3c(N)ncnn23)O[C@H](CO)[C@@H](O)[C@H]1O" stands at 0.00

---

Please provide measured Tmax for the entries that follow.
# PROTOCOL_DESCRIPTION: in vivo
# STATED_CONDITIONS: both, monkey, inhaled or intranasal, 0.168 mg/kg
Answers are plain numbers, in min.

[[record]]
line_notation = "N#C[C@@]1(c2ccc3c(N)ncnn23)O[C@H](CO)[C@@H](O)[C@H]1O"
units_text = "min"
reported = 60


# input for lookup
For reference, reported Tmax for "CCC(CC)COC(=O)[C@H](C)N[P@](=O)(OC[C@H]1O[C@@](C#N)(c2ccc3c(N)ncnn23)[C@H](O)[C@@H]1O)Oc1ccccc1" stands at 31.2

---

# Type: physicochemical
# STATED_CONDITIONS: pH 3.8; T = 0
Please provide measured % assay/degs for the entries that follow.
Answers are plain numbers, in %.

These recorded examples may help you get a feel for the data.
[[record]]
line_notation = "N#C[C@@]1(c2ccc3c(N)ncnn23)O[C@H](COP(=O)(O)Oc2ccccc2)[C@@H](O)[C@H]1O"
quantity_kind = "% assay/degs"
reported = 0.02

[[record]]
line_notation = "N#C[C@@]1(c2ccc3c(N)ncnn23)O[C@H](CO)[C@@H](O)[C@H]1O"
quantity_kind = "% assay/degs"
reported = 0.02

[[record]]
line_notation = "CCC(CC)COC(=O)[C@H](C)N[P@](=O)(OC[C@H]1O[C@@](C(N)=O)(c2ccc3c(N)ncnn23)[C@H](O)[C@@H]1O)Oc1ccccc1"
quantity_kind = "% assay/degs"
reported = 0.05


# input for lookup
For reference, reported % assay/degs for "CCC(CC)COC(=O)[C@H](C)N[P@](=O)(OC[C@H]1O[C@@](C#N)(c2ccc3c(N)ncnn23)[C@H](O)[C@@H]1O)Oc1ccccc1" stands at 98.7

---

# PROTOCOL_DESCRIPTION: Plasma PK of Formula Ia and metabolites after inhalation in African Green Monkeys
# STATED_CONDITIONS: both, monkey, in vivo, inhaled or intranasal, 0.168 mg/kg
QUANTITY_KIND: Cmax (nM)
Give bare numbers, in nM.

For reference, reported Cmax for "N#C[C@@]1(c2ccc3c(N)ncnn23)O[C@H](CO)[C@@H](O)[C@H]1O" stands at 31

---

# Type: physicochemical
# STATED_CONDITIONS: pH 1.8; 2-8° C.; 3 h
Please provide measured % assay/degs, difference from T = 0 for the entries that follow.
# output: number + unit

These recorded examples may help you get a feel for the data.
[[record]]
molecule = "N#C[C@@]1(c2ccc3c(N)ncnn23)O[C@H](CO)[C@@H](O)[C@H]1O [Compound A]"
quantity_kind = "% assay/degs, difference from T = 0"
reported = "0.00%"

[[record]]
molecule = "CCC(CC)COC(=O)[C@H](C)N[P@](=O)(OC[C@H]1O[C@@](C(N)=O)(c2ccc3c(N)ncnn23)[C@H](O)[C@@H]1O)Oc1ccccc1 [Compound G]"
quantity_kind = "% assay/degs, difference from T = 0"
reported = "0.00%"

[[record]]
molecule = "CCC(CC)COC(=O)[C@H](C)N[P@](=O)(OC[C@H]1O[C@@](C#N)(c2ccc3c(N)ncnn23)[C@H](O)[C@@H]1O)Oc1ccccc1 [Formula Ia]"
quantity_kind = "% assay/degs, difference from T = 0"
reported = "−0.2%"


For reference, reported % assay/degs, difference from T = 0 for N#C[C@@]1(c2ccc3c(N)ncnn23)O[C@H](COP(=O)(O)Oc2ccccc2)[C@@H](O)[C@H]1O [Compound F] stands at 0.03%

---

Please provide measured % assay/degs, difference from T = 0 for the entries that follow.
# Type: physicochemical
# STATED_CONDITIONS: pH 1.8; Ambient; 48 h
Answers are plain numbers, in %.

These recorded examples may help you get a feel for the data.
[[record]]
line_notation = "CCC(CC)COC(=O)[C@H](C)N[P@](=O)(OC[C@H]1O[C@@](C(N)=O)(c2ccc3c(N)ncnn23)[C@H](O)[C@@H]1O)Oc1ccccc1"
units_text = "%"
reported = 0.00

[[record]]
line_notation = "CCC(CC)COC(=O)[C@H](C)N[P@](=O)(OC[C@H]1O[C@@](C#N)(c2ccc3c(N)ncnn23)[C@H](O)[C@@H]1O)Oc1ccccc1"
units_text = "%"
reported = "−3.5"

[[record]]
line_notation = "N#C[C@@]1(c2ccc3c(N)ncnn23)O[C@H](COP(=O)(O)Oc2ccccc2)[C@@H](O)[C@H]1O"
units_text = "%"
reported = 2.09


# input for lookup
For reference, reported % assay/degs, difference from T = 0 for "N#C[C@@]1(c2ccc3c(N)ncnn23)O[C@H](CO)[C@@H](O)[C@H]1O" stands at 0.09
